tested on: 832693-133-R-J1-PDC multi-cell spheroids, viability; test: Anticancer human tumor 832693-133-R-J1-PDC patient-derived head and neck squamous carcinoma cell line growth inhibition [IpAb]; settings: second compound 0.316 µM; first compound 3.16 µM; stronger effect = lower value
Provide the reported viability, T/C of each item.
One number for each entry, in %.

Some entries whose results are on file:
Cc1nc(NC(=O)N2CCCC2C(N)=O)sc1-c1ccnc(C(C)(C)C(F)(F)F)c1 (stereo not drawn) + CC(C)NCC(C(=O)N1CCN(c2ncnc3c2C(C)CC3O)CC1)c1ccc(Cl)cc1	12.8
C=CC(=O)N1CCN(c2nc(=O)n(-c3c(C)ccnc3C(C)C)c3nc(-c4c(O)cccc4F)c(F)cc23)C(C)C1 (stereo not drawn) + CC(C)NCC(C(=O)N1CCN(c2ncnc3c2C(C)CC3O)CC1)c1ccc(Cl)cc1	56.6

Pending compound:
# value lookup — system 832693-133-R-J1-PDC multi-cell spheroids, viability, readout viability, T/C, item Cn1nccc1Nc1nccc(-c2ccn(C(CO)c3ccc(Cl)c(F)c3)c(=O)c2)n1 (stereo not drawn) + CC(C)NCC(C(=O)N1CCN(c2ncnc3c2C(C)CC3O)CC1)c1ccc(Cl)cc1
19.7

====

tested on: 832693-133-R-J1-PDC multi-cell spheroids, viability; experiment: Anticancer human tumor 832693-133-R-J1-PDC cell line growth inhibition [IpAb]; conditions: second compound 0.1 µM; first compound 0.316 µM; stronger effect = lower value;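 further: spheroids exposed to the drugs for one week before the viability readout; 100% = DMSO vehicle control wells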
Provide the reported viability, T/C of each item.
Give bare numbers, in %.

Some entries whose results are on file:
Cc1nc(NC(=O)N2CCCC2C(N)=O)sc1-c1ccnc(C(C)(C)C(F)(F)F)c1 (stereo not drawn) + CC(C)NCC(C(=O)N1CCN(c2ncnc3c2C(C)CC3O)CC1)c1ccc(Cl)cc1	51.3
CC1(C)CCC(CN2CCN(c3ccc(C(=O)NS(=O)(=O)c4ccc(NCC5CCOCC5)c([N+](=O)[O-])c4)c(Oc4cnc5[nH]ccc5c4)c3)CC2)=C(c2ccc(Cl)cc2)C1 + CC(C)NCC(C(=O)N1CCN(c2ncnc3c2C(C)CC3O)CC1)c1ccc(Cl)cc1	94.6

Please look up its viability, T/C: CCCS(=O)(=O)Nc1ccc(F)c(C(=O)c2c[nH]c3ncc(-c4ccc(Cl)cc4)cc23)c1F + CCN1CCN(Cc2ccc(Nc3ncc(F)c(-c4cc(F)c5nc(C)n(C(C)C)c5c4)n3)nc2)CC1
64.9

====

Test system: 832693-133-R-J1-PDC multi-cell spheroids, viability
Experiment: Anticancer human tumor 832693-133-R-J1-PDC cell line growth inhibition [IpAb];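 further: spheroids exposed to the drugs for one week before the viability readout; 100% = DMSO vehicle control wells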
Details: second compound 0.0316 µM; first compound 3.16 µM; stronger effect = lower value
Experimental: Combinatorial screen of targeted agents with ipatasertib and abemaciclib in multi-cell type tumor spheroids […] Compounds. […] If the clinical Cmax for an agent had not been determined, the highest concentration tested was 10 microM. NCI60 Cell Culture. […] The optimal seeding densities for each of the cell lines at each time point assessed were determined prior to performing the concentration response studies. […]
Provide the reported viability, T/C of each item.

Some entries whose results are on file:
C=CC(=O)N1CCN(c2nc(=O)n(-c3c(C)ccnc3C(C)C)c3nc(-c4c(O)cccc4F)c(F)cc23)C(C)C1 (configuration not stated) + CCN1CCN(Cc2ccc(Nc3ncc(F)c(-c4cc(F)c5nc(C)n(C(C)C)c5c4)n3)nc2)CC1	115%
C=CCn1c(=O)c2cnc(Nc3ccc(N4CCN(C)CC4)cc3)nc2n1-c1cccc(C(C)(C)O)n1 + CCN1CCN(Cc2ccc(Nc3ncc(F)c(-c4cc(F)c5nc(C)n(C(C)C)c5c4)n3)nc2)CC1	29.3%
CCCS(=O)(=O)Nc1ccc(F)c(C(=O)c2c[nH]c3ncc(-c4ccc(Cl)cc4)cc23)c1F + CCN1CCN(Cc2ccc(Nc3ncc(F)c(-c4cc(F)c5nc(C)n(C(C)C)c5c4)n3)nc2)CC1	51.4%
Cn1ncc(Cl)c1-c1cc(C(=O)NC(CN)Cc2cccc(F)c2)sc1Cl (configuration not stated) + CCN1CCN(Cc2ccc(Nc3ncc(F)c(-c4cc(F)c5nc(C)n(C(C)C)c5c4)n3)nc2)CC1	59.9%
Cn1nccc1Nc1nccc(-c2ccn(C(CO)c3ccc(Cl)c(F)c3)c(=O)c2)n1 (configuration not stated) + CCN1CCN(Cc2ccc(Nc3ncc(F)c(-c4cc(F)c5nc(C)n(C(C)C)c5c4)n3)nc2)CC1	31%

Give me viability, T/C for each of these compounds, listed below.
1. CC1(C)CCC(CN2CCN(c3ccc(C(=O)NS(=O)(=O)c4ccc(NCC5CCOCC5)c([N+](=O)[O-])c4)c(Oc4cnc5[nH]ccc5c4)c3)CC2)=C(c2ccc(Cl)cc2)C1 + CCN1CCN(Cc2ccc(Nc3ncc(F)c(-c4cc(F)c5nc(C)n(C(C)C)c5c4)n3)nc2)CC1
2. Cc1nc(NC(=O)N2CCCC2C(N)=O)sc1-c1ccnc(C(C)(C)C(F)(F)F)c1 (configuration not stated) + CCN1CCN(Cc2ccc(Nc3ncc(F)c(-c4cc(F)c5nc(C)n(C(C)C)c5c4)n3)nc2)CC1

1: 83.6%; 2: 10.5%

The values you see were collected from PubChem BioAssay AID2060337.
